targetDesc: UniProt:P81908
Sequence (P81908 whole entry): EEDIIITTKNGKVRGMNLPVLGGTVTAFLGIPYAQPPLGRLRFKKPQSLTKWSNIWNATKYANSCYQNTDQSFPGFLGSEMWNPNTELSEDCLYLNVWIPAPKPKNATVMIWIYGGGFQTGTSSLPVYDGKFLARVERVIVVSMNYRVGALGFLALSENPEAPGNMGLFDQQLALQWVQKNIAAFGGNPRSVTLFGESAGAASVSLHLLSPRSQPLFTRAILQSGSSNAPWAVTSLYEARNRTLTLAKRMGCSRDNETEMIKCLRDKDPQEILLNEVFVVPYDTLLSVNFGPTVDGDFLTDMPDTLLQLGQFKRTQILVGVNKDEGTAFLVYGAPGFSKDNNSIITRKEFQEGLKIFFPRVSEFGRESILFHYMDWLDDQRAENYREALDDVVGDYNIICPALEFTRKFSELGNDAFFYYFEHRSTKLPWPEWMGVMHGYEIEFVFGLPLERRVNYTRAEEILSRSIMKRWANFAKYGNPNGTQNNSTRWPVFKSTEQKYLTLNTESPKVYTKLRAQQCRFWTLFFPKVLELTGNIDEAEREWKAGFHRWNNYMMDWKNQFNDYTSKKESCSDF
methodNotes: Inhibition of equine serum BuChE using butyrylthiocholine iodide as substrate by Ellman's method
readout: pIC50
To interpret pIC50, take it as minus log10 of a concentration measured in moles per litre.

Solved entries (count: 5):
compound: CN(C)Cc1cc(=O)oc2cc(OCc3ccc(CO)cc3)ccc12
readout: pIC50
readoutValue: 4.96
//
compound: Cc1c(C)c2ccc(OCC3CCCN(Cc4cccc(CO)c4)C3)cc2oc1=O (stereo unspecified)
readout: pIC50
readoutValue: 5.57
//
compound: Cc1cc2ccc(OCC3CCN(Cc4ccc(CO)cc4)CC3)cc2oc1=O
readout: pIC50
readoutValue: 5.09
//
compound: Cc1cc2ccc(OCC3CCN(Cc4cccc(CO)c4)CC3)cc2oc1=O
readout: pIC50
readoutValue: 6.04
//
compound: Cc1c(C)c2ccc(OCC3CCN(Cc4cccc(CO)c4)CC3)cc2oc1=O
readout: pIC50
readoutValue: 5.89

Recorded pIC50 of Cc1c(C)c2ccc(OCC3CCN(Cc4cccc(OCCCO)c4)CC3)cc2oc1=O , please.
6.74
